# experiment description: NCI Yeast Anticancer Drug Screen. Data for the bub3 strain (AID 167)
# test context: S. cerevisiae bub3 mutant strain, at 50.0 µM, stronger effect = higher value
# Protocol: Growth inhibition of yeast strains with defined genetic alterations is measured as a screen for potential anti-cancer activity. Selected strains with alterations in DNA damage repair or cell cycle control were exposed to compounds and growth inhibition was measured relative to vehicle treated controls. The strain used in this assay is bub3
The panel holds about 79,000 compounds, 15% with a hit somewhere; the sample as a whole holds those more often.
growth inhibition overview
property name: growth inhibition (%)

molecule | val
CO/N=C/c1cc(NC(=S)c2ccoc2C)ccc1Cl | 92.2
Cc1ccc(S(=O)(=O)OC(C=O)C(O)C(O)COC(c2ccccc2)(c2ccccc2)c2ccccc2)cc1 (centres undefined) | 88.5
C#Cc1cccc(N2C(=O)CCC2=O)c1 | 92.3
Cc1ccc(NC(=S)SCc2ccc3c(c2)OCO3)cc1Br | 91

----------
# experiment description: NCI Yeast Anticancer Drug Screen. Data for the mec2-1 strain (AID 157)
# test context: S. cerevisiae mec2-1 strain, at 5.0 µM (retest, dose inferred, filed as 0.5), stronger effect = higher value
This is part of a sample that, as a whole, favours compounds with a hit. Of some 79,000 tested, about 15% had one in any assay. Active and inactive are the calls of the source. No stated cut-off is given here; in the data, active means growth inhibition above about 70%; inactive means the rest.

molecule | growth inhibition
COc1ccc(C(=O)Nc2ccccc2[N+](=O)[O-])cc1 | -16% (inactive)
Clc1ccc(C2SCc3nc4ccccc4n32)c(Cl)c1 (stereo not given) | -6% (inactive)
CN(C)c1ccc(/C=C(/NC(=O)c2ccccc2)c2nc3ccc(Cl)cc3[nH]2)cc1 | 6% (inactive)
CCc1cc2c(cc1O)CC[C@@H]1[C@@H]2CC[C@]2(C)[C@@H](O)CC[C@@H]12 | -10% (inactive)
NC(=O)NCCCCC1NC(=S)N(c2ccccc2)C1=O (stereo not given) | -8% (inactive)
CCc1cccc(CC)c1NC(=O)C1=C(C)NC(C)=C(C(=O)Nc2c(CC)cccc2CC)C1c1ccc2c(c1)OCO2 | 45% (inactive)
C/C(=N\NC(=S)Nc1ccc(N(C)C)cc1)c1ccccn1 | -4% (inactive)
COc1c2c(cc3c1c(=O)c1ccccc1n3C)OCO2 | -4% (inactive)
Cc1cccc2c1Oc1cc(Cl)ccc1C2NC(=O)CCN1CCN(CCO)CC1 (stereo not given) | -11% (inactive)
CCOC(=O)C(=N\Nc1cccc(C)c1C)/C(C)=N\NC(N)=S | 9% (inactive)
CCOc1c(N=Nc2ccc(OC)cc2)c(-c2ccccc2)nn1C(N)=S | -2% (inactive)
Cc1cc(N(CCOS(C)(=O)=O)CCOS(C)(=O)=O)ccc1C=Nc1cccc(Cl)c1 | 44% (inactive)
CN(C)CC(CN(C)C)C(=O)c1ccc(Oc2ccc(Cl)cc2)cc1 | 60% (inactive)
O=C([O][Sb]([O]C(=O)C(Cl)(Cl)Cl)([c]1ccccc1)([c]1ccccc1)[c]1ccccc1)C(Cl)(Cl)Cl | 7% (inactive)
Nc1ccc(SCCCc2c(N)nc(N)nc2N)cc1 | 1% (inactive)
COC1=C(NC(C)=O)C(=O)c2nc(-c3nc(C(=O)O)c(C)c(-c4ccc(OC)c(OC)c4O)c3N)ccc2C1=O | 28% (inactive)
COC(=O)CS(=O)(=O)CCS(=O)(=O)CC(=O)OC | -2% (inactive)
Cc1c2ccncc2c(C)c2c1sc1ccccc12 | 38% (inactive)
CC(C)C1COC(c2ccc3ccccc3c2-c2c(O[Si](C)(C)C(C)(C)C)ccc3ccccc23)=N1 (stereo not given) | 14% (inactive)
Cc1ncc(Br)c(C(=O)O)n1 | 1% (inactive)
COC(=O)c1ccccc1NC(=S)NN(C)C | 7% (inactive)
O=C1CCC(Cc2ccc(Cl)cc2Cl)C(=O)N1 (stereo not given) | -3% (inactive)
O=C(c1ccc([N+](=O)[O-])cc1)c1[nH]c2ccccc2c(=O)c1-c1ccccc1 | 14% (inactive)
O=C(Nc1ncnc2c1ncn2C1CC(O)C(CO)O1)c1ccccc1 (stereo not given) | -2% (inactive)
O=C(Oc1cccc2cccnc12)c1cccnc1 | 58% (inactive)

----------
# experiment description: NCI Yeast Anticancer Drug Screen. Data for the mlh1 rad18 strain (AID 175)
# test context: S. cerevisiae mlh1 rad18 strain growth inhibition; at 50.0 µM (retest, dose inferred, filed as 5.0)
About 79,000 compounds went through this panel and 15% of them were active in at least one assay; those are over-represented in the sample as a whole. Activity calls are given as the source filed them. Rule as the data show it: active = growth inhibition above about 70%; inactive = the rest.
Possible outcomes: T = active, F = inactive

molecule | cat
Cc1ccc(C)c(N2C/C(=N\NC(=O)CC#N)C(c3nc4ccccc4s3)C(=O)C2=O)c1 (configuration not stated) | F
CCC(CC)=NNc1ccc([N+](=O)[O-])cc1 | T
Cc1ccc(S(=O)(=O)N/N=C(\C=C\c2ccccc2)c2ccccc2)cc1 | T
COc1ccccc1NC(=O)/C(=C/n1c(=S)sc2ccccc21)C(C)=O | F
CCCCCCCCCCCCCCCCCCOS(=O)(=O)O (tested in a mixture with another compound) | T
C/C(=N\OS(=O)(=O)O)SC1OC(CO)C(O)C(O)C1O (configuration not stated) | F
CN1CCCCC1c1cc2c3ccccc3ccn2c1-c1ccccc1 (configuration not stated) | T

----------
# experiment description: NCI Yeast Anticancer Drug Screen. Data for the mlh1 rad18 strain (AID 175)
# test context: S. cerevisiae mlh1 rad18 strain growth inhibition; at 50.0 µM (retest, dose inferred, filed as 5.0); stronger effect = higher value
This is part of a sample that, as a whole, favours compounds with a hit. Of some 79,000 tested, about 15% had one in any assay.
Kind request: treat 60% as inclusive, so growth inhibition at 60% or higher is 1, anything lower is 0.

compound | cat
CCCC(=O)N(C(=O)CCC)C1=C(Cl)C(=O)c2ccccc2C1=O | 1
[Cl][Pt+2][Cl].[NH-]CC1(C[NH-])CCCC1 | 1
COc1ccc(NC(=O)Nc2ccc(Cl)cc2)nn1 | 0
O=C1c2ccccc2C(=O)c2c(Nc3cc4c5c(ccc6c7ccc8c9c(cc(Nc%10cccc%11c%10C(=O)c%10ccccc%10C%11=O)c(c3c56)c97)-c3ccccc3C8=O)C(=O)c3ccccc3-4)cccc21 | 0
COc1ccc(N=NC(C(=O)c2ccccc2)C(=O)c2ccccc2)cc1 | 1
c1ccc(CCN(Cc2nc3ccccc3[nH]2)Cc2nc3ccccc3[nH]2)cc1 | 1
COC(=O)C1=C(C)NC(C)=C(C(=O)OC)C1c1ccc(NCc2ccccc2)c([N+](=O)[O-])c1 | 1
CC(NC(=O)OCc1ccccc1)C(=O)NNc1ccccc1Cl (centres undefined) | 1
CN(N(P(c1ccccc1)c1ccccc1)P(c1ccccc1)c1ccccc1)P(c1ccccc1)c1ccccc1 | 0
Cc1nc2c(O)c3c(c(O)c2nc1C)C1C=CC3CC1 | 1
[N-]=[N+]=Nc1c([N+](=O)[O-])c(Cl)nc2ccccc12 | 1
COc1ccc(C(=O)Cc2ccc(Cl)cc2)cc1OC | 0
O=c1nc(N2CCCC2)nc(N2CCCC2)s1 | 0
Cc1c[nH]c(=O)n(CC(=O)C2CCC3C4CCC5=CC(=O)CCC5(C)C4CCC23C)c1=O (centres undefined) | 0

----------
# experiment description: NCI Yeast Anticancer Drug Screen. Data for the cln2 rad14 strain (AID 165);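 note: 0% = growth equal to vehicle treated cultures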
# test context: S. cerevisiae cln2 rad14 strain, at 50.0 µM, stronger effect = higher value
The panel holds about 79,000 compounds, 15% with a hit somewhere; the sample as a whole holds those more often.
growth inhibition overview

compound | growth inhibition / %
Cc1cc2ccccc2c[n+]1Cc1ccc2ccccc2n1 | 21.6
COc1cc(C2c3cc4c(cc3[C@@H](OCCN)[C@H]3COC(=O)C23)OCO4)cc(OC)c1O (stereo partly specified) | 49.6
S=C(Nc1cc(Cl)cc(Cl)c1)SCc1ccccc1 | 98.7
NC1=NC(c2ccccc2)CC(c2cc(Cl)cc(Br)c2O)=N1 (stereo unspecified) | 16.2
COc1ccccc1CN1CCCN(Cc2ccccc2OC)C1c1ccccc1F | 36.6
FC(F)(F)c1[nH]nc(-c2cccs2)c1N=NN1CCOCC1 | 98.6
CN=C(N)NN=C(c1ccc(Cl)cc1)c1ccc(Cl)cc1 | 85
O=C1CCC(Cc2ccc(I)cc2)C(=O)N1 (stereo unspecified) | -63.8
CN1CCS(=O)(=O)C1=O | 86.3
COc1ccc2c(c1)[n+]([O-])c(C(N)=O)c(N)[n+]2[O-] | 99.1
CN(c1ccccc1)c1c2c(oc(=O)c1Cl)-c1ccccc1SC2 | 10.9
O=c1c(Cl)c(Cl)oc(Cl)c1Cl | 94.5
Brc1ccc(-c2c3ccccc3cc3c2ccc2ccccc23)cc1 | 74.5
C#CCn1cnc2c(N)ncnc21 | 84.2
Cc1c(Cl)ccc2c1NC(=O)C2(O)CC(=O)c1ccc(Cl)cc1 (stereo unspecified) | 99.3
COc1cc[c]([Sn]([O][Sn]([Cl])([c]2ccc(OC)cc2)[c]2ccc(OC)cc2)[c]2ccc(OC)cc2)cc1 | 53.5
CCOc1cc(C(c2ccc(N(C)C)cc2)c2ccc(N(C)C)cc2)ccc1O | 84.1
O=[N+]([O-])/C=C/c1c[nH]c2c1ccc1ccccc12 | 89
CCN(CC)C(=S)Nc1ccc(Cl)cc1 | 98.5
C(=C\N1CCCCC1)/c1nnnn1-c1ccccc1 | 11.8
O=C(Nc1cccc(Cl)c1)Oc1c(Br)cc(Br)cc1Br | 94.5
O=C1C=C(c2ccccc2)O/C1=C/C(=O)c1ccc(Cl)cc1 | 39.6
CN(C)/N=N/c1nc(Cc2ccccc2)[nH]c1C(N)=O | 92.9
Nc1ccc(-c2nc3ccccc3s2)cc1I | 86.2
CCCCCN(CCCCC)C(=S)Nc1ccccc1 | 80.9
CCCCCCCCCCCC[N+](C)(CCS(=O)(=O)[O-])Cc1ccccc1 (stereo unspecified) | 77.5
CN(C)Cc1cc(C(C)(C)C)cc(C2CCCCC2)c1O | 61.7
CCCCC(C)(C)OC(=O)Nc1ccc(Br)cc1 | 84.2
CCC(/C=C/C(C)C1CCC2C3CC=C4C/C(=N/NC(N)=O)CCC4(C)C3CCC12C)C(C)C (stereo unspecified) | -1.15
O=c1[nH]c2ccccc2c2cccc(F)c12 | 69.5
COc1ccc(C23OCCN2C(=O)c2ccccc23)cc1 (stereo unspecified) | 92.7
